Taken from patent US20170334899A1.

- Tested on: HeLa
- Procedure Summary: Proliferation assay (crystal violet), HeLa
- Format: cell-based
- Test Parameters: Homo sapiens, HeLa, 96 h, HeLa cells; 4 days incubation; crystal violet staining; read-out: IC50 inhibition of proliferation, HeLa
- Procedure: Cultivated tumor cells (cells were ordered from ATCC, except HeLa-MaTu and HeLa-MaTu-ADR, which were ordered from EPO-GmbH, Berlin) were plated at a density of 1000 to 5000 cells/well, depending on the growth rate of the respective cell line, in a 96-well multititer plate in 200 μL of their respective growth medium supplemented 10% fetal calf serum. […] Absorbtion was determined by photometry at a wavelength of 595 nm. […] The IC50 values were determined by means of a 4 parameter fit.
Readout Type: IC50 (nM)

{"Compound": "Cc1nsc(Nc2cncc(C(F)(F)F)n2)c1C(=O)Nc1ccc(OCCNC(=O)OC(C)(C)C)nc1", "IC50 (nM)": 1600}
{"Compound": "COC(=O)CN(C)C(=O)c1cccc(NC(=O)c2c(C)nsc2Nc2cnc3ccccc3n2)c1", "IC50 (nM)": 10000}
{"Compound": "Cc1nsc(Nc2cnc3ccccc3n2)c1C(=O)Nc1ccc(OC2CCCNC2)nc1 (centres unmarked)", "IC50 (nM)": 8000}
{"Compound": "CCN1CC[C@H](Oc2ccc(NC(=O)c3c(C)nsc3Nc3cnc(C(F)(F)F)cn3)cn2)[C@@H](F)C1", "IC50 (nM)": 410}
{"Compound": "C#CCNC(=O)c1cccc(NC(=O)c2c(C)nsc2Nc2cnc3ccccc3n2)c1", "IC50 (nM)": 9400}

1: CCN1CCC(Oc2ccc(NC(=O)c3c(C)nsc3Nc3cc(C#N)ccn3)cn2)CC1
2: Cc1nsc(Nc2cnc(C(F)(F)F)cn2)c1C(=O)Nc1ccc(N2CCN(CC(F)F)CC2)nc1
Pick the one with the larger IC50: 1 vs 2 State your choice using its label. 1
(1: 10000 nM, 2: 640 nM)

1: Cc1nsc(Nc2cncc(C(F)(F)F)n2)c1C(=O)Nc1ccc(OCCCO)nc1
2: Cc1nsc(Nc2cnc(C(F)(F)F)cn2)c1C(=O)Nc1ccc(OCCNCCC(F)(F)F)nc1
Which shows the larger IC50 value: 1 or 2 ? Could you answer with the label of the item you picked? 1
(1: 2600 nM, 2: 950 nM)
